- Assay overview: Dissolution performance test: solubility in 3-ethyl-3-hydroxymethyl oxetane monomer
- Type: physicochemical
- Measurement context: Table 3; maximum number of grams dissolved in 100 g 3-ethyl-3-hydroxymethyl oxetane monomer at 20° C.
Readout kind: Solubility (g)

1 = COc1ccc([S+](c2ccc(Sc3ccccc3)cc2)c2ccc(OC)c(F)c2)cc1F [Compound A-35]
2 = Fc1cccc([S+](c2ccccc2)c2ccccc2)c1 [Compound B-1, reference compound]
Exercise: // returns 1 or 2 , whichever has the lower Solubility When you have decided, please share the label of that item.
Solution: 2
(2: 12.1 g, 1: 24.8 g)

====

- Assay overview: Dissolution performance test: solubility in 3-ethyl-3-hydroxymethyl oxetane monomer
- Format: physicochemical
- Measurement context: Table 4; maximum number of grams dissolved in 100 g 3-ethyl-3-hydroxymethyl oxetane monomer at 20° C.
Readout kind: Solubility (g)

Exercise: # Solubility lookup, item Cc1ccc([S+](c2ccc(/C=C/c3ccc([S+](c4ccc(C)c(F)c4)c4ccc(C)c(F)c4)cc3)cc2)c2ccc(C)c(F)c2)cc1F [Compound C-7]
Solution: 22.4

Exercise: Query CCc1ccc([S+](c2ccc(Sc3ccc([S+](c4ccc(CC)c(F)c4)c4ccc(CC)c(F)c4)cc3)cc2)c2ccc(CC)c(F)c2)cc1F [Compound C-5] next
Solution: 25.1

Exercise: Query Cc1ccc([S+](c2ccc(Sc3ccc([S+](c4ccc(C)c([N+](=O)[O-])c4)c4ccc(C)c([N+](=O)[O-])c4)cc3)cc2)c2ccc(C)c([N+](=O)[O-])c2)cc1[N+](=O)[O-] [Compound C-3] next
Solution: 23.4

Exercise: Query Cc1ccc([S+](c2ccc(Sc3ccc([S+](c4ccc(C)c(F)c4)c4ccc(C)c(F)c4)cc3)cc2)c2ccc(C)c(F)c2)cc1F [Compound C-1] next
Solution: 24.4

Exercise: Query Cc1ccc([S+](c2ccccc2)c2ccc(Sc3ccc([S+](c4ccccc4)c4ccc(C)c(C(F)(F)F)c4)cc3)cc2)cc1C(F)(F)F (stereo not drawn) [Compound C-20] next
Solution: 22.1

Exercise: Query Cc1ccc([SH](c2ccc(C)c(F)c2)c2ccc3c(c2)oc2cc([SH](c4ccc(C)c(F)c4)c4ccc(C)c(F)c4)ccc23)cc1F [Compound C-23] next
Solution: 23.6

====

- Assay overview: Dissolution performance test: solubility in 3-ethyl-3-hydroxymethyl oxetane monomer
- Assay type: physicochemical
- Measurement context: Table 3; maximum number of grams dissolved in 100 g 3-ethyl-3-hydroxymethyl oxetane monomer at 20° C.
Readout kind: Solubility (g)

Exercise: # Solubility lookup, item Cc1ccc([S+](c2ccc(C)c(C#N)c2)c2ccc(C)c(C#N)c2)cc1C [Compound A-18]
Solution: 23.2

Exercise: Query Cc1ccc([S+](c2ccc(C)c(F)c2)c2ccc(C)c(F)c2)cc1 [Compound A-11] next
Solution: 21.6

Exercise: Query Cc1ccc([S+](c2ccccc2)c2ccccc2)cc1F [Compound A-4] next
Solution: 19.5

Exercise: Query Cc1ccc([SH](c2ccc(Sc3ccc(C(=O)c4ccccc4)cc3)cc2)c2ccc(C)c(F)c2)cc1F [Compound A-30] next
Solution: 27.8

====

- Assay overview: Dissolution performance test: solubility in 3-ethyl-3-hydroxymethyl oxetane monomer
- Assay type: physicochemical
- Measurement context: Table 3; maximum number of grams dissolved in 100 g 3-ethyl-3-hydroxymethyl oxetane monomer at 20° C.
Readout kind: Solubility (g)

Exercise: # Solubility lookup, item "CCc1ccc([S+](c2ccc(OC)cc2)c2ccc(CC)c(C(F)(F)F)c2)cc1C(F)(F)F"
Solution: 27.6

Exercise: Query "Cc1ccc([SH](c2ccc(C)c(F)c2)c2ccc(C)c(F)c2)cc1F" next
Solution: 23.8

Exercise: Query "Fc1ccc([S+](c2ccccc2)c2ccccc2)cc1F" next
Solution: 19.1

Exercise: Query "Cc1ccc([S+](c2ccc(OCCO)cc2)c2ccc(C)c(F)c2)cc1F" next
Solution: 24.3

====

- Assay overview: Dissolution performance test: solubility in 3-ethyl-3-hydroxymethyl oxetane monomer
- Format: physicochemical
- Measurement context: Table 4; maximum number of grams dissolved in 100 g 3-ethyl-3-hydroxymethyl oxetane monomer at 20° C.
- Experimental: The solubility in 3-ethyl-3-hydroxymethyl oxetane monomer was tested for Compound A-1 to A-38 and C-1 to C-25, and comparative compounds B-1 and B-2 as well as D-1 and D-2 in the present invention, calculated based on the maximum number of grams dissolved in 100 g solvent at 20° C.
Readout kind: Solubility (g)

Exercise: # Solubility lookup, item "Cc1ccc([S+](c2ccc(C)c(F)c2)c2ccc3c(c2)Cc2cc([S+](c4ccc(C)c(F)c4)c4ccc(C)c(F)c4)ccc2-3)cc1F"
Solution: 23.4

Exercise: Query "Fc1cc([S+](c2ccc(Sc3ccc([S+](c4ccc(Cc5ccccc5)c(F)c4)c4ccc(Cc5ccccc5)c(F)c4)cc3)cc2)c2ccc(Cc3ccccc3)c(F)c2)ccc1Cc1ccccc1" next
Solution: 24.4

Exercise: Query Cc1ccc([S+](c2ccccc2)c2ccc(Sc3ccc([S+](c4ccccc4)c4ccc(C)cc4)cc3)cc2)cc1 [Compound D-2, reference compound] next
Solution: 19.3

Exercise: Query "CCn1c2cc([SH](c3ccc(C)c(C(F)(F)F)c3)c3ccc(C)c(C(F)(F)F)c3)ccc2c2ccc([SH](c3ccc(C)c(C(F)(F)F)c3)c3ccc(C)c(C(F)(F)F)c3)cc21" next
Solution: 22.8

Exercise: Query COc1ccc([S+](c2ccccc2)c2ccc(Sc3ccc([S+](c4ccccc4)c4ccc(OC)c(F)c4)cc3)cc2)cc1F (stereo not drawn) next
Solution: 20.7

Exercise: Query "CCc1ccc([S+](c2ccc(Sc3ccc([S+](c4ccc(CC)c(C(F)(F)F)c4)c4ccc(CC)c(C(F)(F)F)c4)cc3)cc2)c2ccc(CC)c(C(F)(F)F)c2)cc1C(F)(F)F" next
Solution: 25.3

Exercise: Query "Cc1ccc([S+](c2ccc(Sc3ccc([S+](c4ccc(C)c(C#N)c4)c4ccc(C)c(C#N)c4)cc3)cc2)c2ccc(C)c(C#N)c2)cc1C#N" next
Solution: 23.1

Exercise: Query "Cc1ccc([S+](c2ccc(Sc3ccc([S+](c4ccc(C)c(F)c4)c4ccc(C)c(F)c4)cc3C)c(C)c2)c2ccc(C)c(F)c2)cc1F" next
Solution: 25.3

Exercise: Query "Cc1ccc([S+](c2ccc(Cc3ccc([S+](c4ccc(C)c([N+](=O)[O-])c4)c4ccc(C)c([N+](=O)[O-])c4)cc3)cc2)c2ccc(C)c([N+](=O)[O-])c2)cc1[N+](=O)[O-]" next
Solution: 23.1

====

- Assay overview: Dissolution performance test: solubility in 3-ethyl-3-hydroxymethyl oxetane monomer
- Assay type: physicochemical
- Measurement context: Table 3; maximum number of grams dissolved in 100 g 3-ethyl-3-hydroxymethyl oxetane monomer at 20° C.
Readout kind: Solubility (g)

Exercise: # Solubility lookup, item Fc1ccc([S+](c2ccccc2)c2ccc(Sc3ccccc3)cc2)cc1F (stereo not shown)
Solution: 19.8

Exercise: Query Cc1ccc([S+](c2ccccc2)c2ccc(-c3ccccc3)cc2)cc1F (stereo not shown) next
Solution: 20.1

Exercise: Query "CCc1ccc([S+](c2ccc(OCCO)cc2)c2ccc(CC)c([N+](=O)[O-])c2)cc1[N+](=O)[O-]" next
Solution: 28.2

Exercise: Query "Cc1ccc([S+](c2ccc(Oc3ccccc3)cc2)c2ccc(C)c(F)c2)cc1F" next
Solution: 23.8

====

- Assay overview: Dissolution performance test: solubility in 3-ethyl-3-hydroxymethyl oxetane monomer
- Type: physicochemical
- Measurement context: Table 3; maximum number of grams dissolved in 100 g 3-ethyl-3-hydroxymethyl oxetane monomer at 20° C.
Readout kind: Solubility (g)

Exercise: # Solubility lookup, item "CC(=O)c1cc([SH](c2ccc(Sc3ccccc3)cc2)c2ccc(C)c(C(C)=O)c2)ccc1C"
Solution: 22.6

Exercise: Query "Fc1cc([S+](c2ccc(Sc3ccccc3)cc2)c2ccc(Cc3ccccc3)c(F)c2)ccc1Cc1ccccc1" next
Solution: 23.2

Exercise: Query CC(=O)c1ccc([S+](c2ccccc2)c2ccc(C)c(C#N)c2)cc1 (stereo not drawn) next
Solution: 20.6

Exercise: Query "COc1ccc([S+](c2ccc(C)c(F)c2)c2ccc(C)c(F)c2)cc1" next
Solution: 25.7

Exercise: Query "Cc1ccc([S+](c2ccc(Sc3ccccc3)cc2)c2ccc(C)c(C(=O)Cl)c2)cc1C(=O)Cl" next
Solution: 24.3

Exercise: Query "Cc1ccc([S+](c2ccc(C)c(F)c2)c2ccc3oc4ccccc4c3c2)cc1F" next
Solution: 23.1
